These data points were gathered from ChEMBL document CHEMBL4219024.

test: physchem; conditions: fasted state simulated intestinal fluid
solubility below 200 µM gives NOT MET; solubility at or above it gives MET.

molecule: Cc1ncsc1-c1ccc(CNC(=O)[C@@H]2C[C@@H](O)CN2C(=O)[C@@H](NC(=O)COCCOCCOCCOCCOCc2cn(CCNC(=O)C[C@@H]3N=C(c4ccc(Cl)cc4)c4c(sc(C)c4C)-n4c(C)nnc43)nn2)C(C)(C)C)cc1
category_label: MET

molecule: Cc1sc2c(c1C)C(c1ccc(Cl)cc1)=N[C@@H](CC(=O)NCCn1cc(COCCOc3cccc4c3C(=O)N(C3CCC(=O)NC3=O)C4=O)nn1)c1nnc(C)n1-2 (some centres not stated)
category_label: MET

molecule: Cc1ncsc1-c1ccc(CNC(=O)[C@@H]2C[C@@H](O)CN2C(=O)[C@@H](NC(=O)COCCOCCOCCNC(=O)C[C@@H]2N=C(c3ccc(Cl)cc3)c3c(sc(C)c3C)-n3c(C)nnc32)C(C)(C)C)cc1
category_label: NOT MET

molecule: Cc1sc2c(c1C)C(c1ccc(Cl)cc1)=N[C@@H](CC(=O)NCCn1cc(COCCOCCOCCOCCOc3cccc4c3C(=O)N(C3CCC(=O)NC3=O)C4=O)nn1)c1nnc(C)n1-2 (some centres not stated)
category_label: MET

molecule: Cc1sc2c(c1C)C(c1ccc(Cl)cc1)=N[C@@H](CC(=O)NCCn1cc(COCCOCCOc3cccc4c3C(=O)N(C3CCC(=O)NC3=O)C4=O)nn1)c1nnc(C)n1-2 (some centres not stated)
category_label: MET

molecule: Cc1ncsc1-c1ccc(CNC(=O)[C@@H]2C[C@@H](O)CN2C(=O)[C@@H](NC(=O)COCCOCc2cn(CCNC(=O)C[C@@H]3N=C(c4ccc(Cl)cc4)c4c(sc(C)c4C)-n4c(C)nnc43)nn2)C(C)(C)C)cc1
category_label: NOT MET

molecule: Cc1sc2c(c1C)C(c1ccc(Cl)cc1)=N[C@@H](CC(=O)NCCn1cc(COCCOCCOCCOc3cccc4c3C(=O)N(C3CCC(=O)NC3=O)C4=O)nn1)c1nnc(C)n1-2 (some centres not stated)
category_label: MET
